Let's look at some IC50 data for Serine/threonine-protein kinase mTOR (Homo sapiens) that I collected from the literature.

[
  {
    "COMPOUND": "Cc1nc(N)nc(-c2c(Nc3cc[nH]n3)nc3ccc(-c4ccccc4C)cn23)n1",
    "TARGET OR SYSTEM": "Serine/threonine-protein kinase mTOR (Homo sapiens)",
    "UNIT INFO": "nM",
    "VALUE PREFIX": "=",
    "IC50": 21
  },
  {
    "COMPOUND": "COc1ncc(-c2cc3c(C)nc(N)cc3n(C3CCCC3)c2=O)cc1NS(=O)(=O)c1ccc(F)cc1",
    "TARGET OR SYSTEM": "Serine/threonine-protein kinase mTOR (Homo sapiens)",
    "UNIT INFO": "nM",
    "VALUE PREFIX": "=",
    "IC50": 35
  },
  {
    "COMPOUND": "COc1ncc(-c2cc3c(C)nc(N)cc3n(C3CCOCC3)c2=O)cc1NS(=O)(=O)c1ccc(F)cc1F",
    "TARGET OR SYSTEM": "Serine/threonine-protein kinase mTOR (Homo sapiens)",
    "UNIT INFO": "nM",
    "VALUE PREFIX": "=",
    "IC50": 13.4
  },
  {
    "COMPOUND": "O=C1/C(=C/c2c(-c3ccccn3)[nH]c3ccccc23)Oc2cc(O)cc(O)c21",
    "TARGET OR SYSTEM": "Serine/threonine-protein kinase mTOR (Homo sapiens)",
    "UNIT INFO": "nM",
    "VALUE PREFIX": "=",
    "IC50": 22
  },
  {
    "COMPOUND": "COC[C@H]1OC(=O)/C(=C/NCCCN(C)C)C2=C(O)C(=O)C3=C([C@H](OC(C)=O)C[C@]4(C)[C@@H](O)CC[C@@H]34)[C@]21C",
    "TARGET OR SYSTEM": "Serine/threonine-protein kinase mTOR (Homo sapiens)",
    "UNIT INFO": "nM",
    "VALUE PREFIX": ">",
    "IC50": 20000
  },
  {
    "COMPOUND": "Cc1ccc(C(=O)Nc2ccc3ccccc3n2)cc1Br",
    "TARGET OR SYSTEM": "Serine/threonine-protein kinase mTOR (Homo sapiens)",
    "UNIT INFO": "nM",
    "VALUE PREFIX": "=",
    "IC50": 17900
  },
  {
    "COMPOUND": "COc1ncc(-c2ccc3ncn([C@H]4CCN(CC5CC5)C4)c(=O)c3c2)cc1NS(=O)(=O)c1ccc(F)cc1",
    "TARGET OR SYSTEM": "Serine/threonine-protein kinase mTOR (Homo sapiens)",
    "UNIT INFO": "nM",
    "VALUE PREFIX": "=",
    "IC50": 114
  },
  {
    "COMPOUND": "O=C(Cc1nc(N2CCOCC2)cc(=O)[nH]1)Nc1ccccc1",
    "TARGET OR SYSTEM": "Serine/threonine-protein kinase mTOR (Homo sapiens)",
    "UNIT INFO": "nM",
    "VALUE PREFIX": ">",
    "IC50": 10000
  },
  {
    "COMPOUND": "CNC(=O)Nc1ccc(-c2nc(N3CCOCC3)nc(N3CCOCC3)n2)cc1",
    "TARGET OR SYSTEM": "Serine/threonine-protein kinase mTOR (Homo sapiens)",
    "UNIT INFO": "nM",
    "VALUE PREFIX": "=",
    "IC50": 11.3
  },
  {
    "COMPOUND": "Cc1nc(N)nc(-n2c(Nc3ccn[nH]3)nc3ccccc32)n1",
    "TARGET OR SYSTEM": "Serine/threonine-protein kinase mTOR (Homo sapiens)",
    "UNIT INFO": "nM",
    "VALUE PREFIX": "=",
    "IC50": 23
  },
  {
    "COMPOUND": "NC(=O)[C@@H]1CCCN1C(=O)c1ccc(NC(=O)Nc2ccc(-c3nc(N4CCOCC4)nc(N4CCOCC4)n3)cc2)cc1",
    "TARGET OR SYSTEM": "Serine/threonine-protein kinase mTOR (Homo sapiens)",
    "UNIT INFO": "nM",
    "VALUE PREFIX": "=",
    "IC50": 3.3
  },
  {
    "COMPOUND": "Oc1cccc(-c2nc(N3CCOCC3)c3sccc3n2)c1",
    "TARGET OR SYSTEM": "Serine/threonine-protein kinase mTOR (Homo sapiens)",
    "UNIT INFO": "nM",
    "VALUE PREFIX": "=",
    "IC50": 49
  },
  {
    "COMPOUND": "CC(=O)Nc1nc2ccc(-c3ccnc(OCc4cccc(C)c4)n3)cc2s1",
    "TARGET OR SYSTEM": "Serine/threonine-protein kinase mTOR (Homo sapiens)",
    "UNIT INFO": "nM",
    "VALUE PREFIX": ">",
    "IC50": 6000
  },
  {
    "COMPOUND": "CCN1CCN(c2ccc(-c3nn(Cc4cn(Cc5ccccc5)nn4)c4nc(NC)ncc34)cn2)CC1",
    "TARGET OR SYSTEM": "Serine/threonine-protein kinase mTOR (Homo sapiens)",
    "UNIT INFO": "nM",
    "VALUE PREFIX": ">",
    "IC50": 10000
  },
  {
    "COMPOUND": "CN(Cc1ccccc1)C(=O)Nc1ccc(C(F)(F)F)cc1",
    "TARGET OR SYSTEM": "Serine/threonine-protein kinase mTOR (Homo sapiens)",
    "UNIT INFO": "nM",
    "VALUE PREFIX": "=",
    "IC50": 10100
  },
  {
    "COMPOUND": "COC[C@H]1OC(=O)/C(=C/N(C)CCCN(C)C)C2=C(O)C(=O)C3=C([C@H](O)C[C@]4(C)[C@@H](O)CC[C@@H]34)[C@]21C",
    "TARGET OR SYSTEM": "Serine/threonine-protein kinase mTOR (Homo sapiens)",
    "UNIT INFO": "nM",
    "VALUE PREFIX": ">",
    "IC50": 20000
  },
  {
    "COMPOUND": "O=C(Nc1ccc(C(=O)NCCN2CCCCC2)cc1)Nc1ccc(-c2nc(O[C@H]3CCOC3)nc(N3CCOCC3)n2)cc1",
    "TARGET OR SYSTEM": "Serine/threonine-protein kinase mTOR (Homo sapiens)",
    "UNIT INFO": "nM",
    "VALUE PREFIX": "=",
    "IC50": 0.4
  },
  {
    "COMPOUND": "COc1ccc(-c2ccc3c(N4CCOC[C@@H]4C)nc(C)nc3n2)cc1CO",
    "TARGET OR SYSTEM": "Serine/threonine-protein kinase mTOR (Homo sapiens)",
    "UNIT INFO": "nM",
    "VALUE PREFIX": "=",
    "IC50": 95
  }
]
